The reported numbers originate from PubChem BioAssay (NCI).

tested on: OVCAR-5 ovarian; experiment: NCI-60 one-dose screen, 48 h (100 = growth as untreated, 0 = no growth, -100 = all killed); conditions: 10 µM unless noted
The panel holds about 83,000 compounds, 20% with a hit somewhere; the sample as a whole holds those more often. Calls of active or inactive are those of the source. Rule for the calls: active = growth percent below 10; inactive = the rest.
observation_type: growth

Example cases with answers are listed next.
> print(dat)
                                   compound    reported.value
1  COC12CC(=O)C(C(C)=O)=C(O)C1(C)c1c(O)c(C)c(O)c(C(C)=O)c1O2 (stereo unspecified)  99.7% (inactive)
2  C/C1=C\CCC2(C)OC2CC2CCC(C)(O)C(CC1)C2(C)C (stereo unspecified)   112% (inactive)

Request: Entry O=[N+]([O-])c1cccc(-c2cc(-c3cc(Br)ccc3O)[nH]n2)c1 has what growth?
Response: 55.4% (inactive)

Request: // repeat for COc1cc(Br)c(OC)cc1Br and report
Response: 93% (inactive)

Request: // repeat for OC1CC2c3ccccc3C1c1ccccc12 (stereo unspecified) and report
Response: 113% (inactive)

Request: // repeat for COc1cc(OC)c(C(=O)/C=C/c2ccc(C#N)cc2)c(OC)c1 and report
Response: 41.8% (inactive)

Request: // repeat for Nc1c(C(=O)c2ccc(F)cc2)sc2nc3c(cc12)CCCC3 and report
Response: 97% (inactive)

Request: // repeat for CC/C=C\C/C=C\C[C@H](O)C/C=C1/C(=O)C=C[C@H]1C/C=C\CCC(=O)OC and report
Response: 71.1% [8.25 µM] (inactive)

Request: // repeat for NC(=O)c1c(NC(=O)c2ccc(OCC3CCCO3)cc2)sc2c1CCCC2 (stereo unspecified) and report
Response: 101% (inactive)

Request: // repeat for CCCC(C(=O)OCC)C(C)OC(=O)OCC (stereo unspecified) and report
Response: 108% (inactive)

Request: // repeat for CC(=O)Nc1ccc(S(=O)(=O)N2C(=O)CCC2C(=O)Nc2ccccc2)cc1 (stereo unspecified) and report
Response: 58.4% (inactive)
